Reference for the values: ChEMBL document CHEMBL3351638

# target-system: Progesterone receptor (Homo sapiens)
# Sequence (P06401 whole entry): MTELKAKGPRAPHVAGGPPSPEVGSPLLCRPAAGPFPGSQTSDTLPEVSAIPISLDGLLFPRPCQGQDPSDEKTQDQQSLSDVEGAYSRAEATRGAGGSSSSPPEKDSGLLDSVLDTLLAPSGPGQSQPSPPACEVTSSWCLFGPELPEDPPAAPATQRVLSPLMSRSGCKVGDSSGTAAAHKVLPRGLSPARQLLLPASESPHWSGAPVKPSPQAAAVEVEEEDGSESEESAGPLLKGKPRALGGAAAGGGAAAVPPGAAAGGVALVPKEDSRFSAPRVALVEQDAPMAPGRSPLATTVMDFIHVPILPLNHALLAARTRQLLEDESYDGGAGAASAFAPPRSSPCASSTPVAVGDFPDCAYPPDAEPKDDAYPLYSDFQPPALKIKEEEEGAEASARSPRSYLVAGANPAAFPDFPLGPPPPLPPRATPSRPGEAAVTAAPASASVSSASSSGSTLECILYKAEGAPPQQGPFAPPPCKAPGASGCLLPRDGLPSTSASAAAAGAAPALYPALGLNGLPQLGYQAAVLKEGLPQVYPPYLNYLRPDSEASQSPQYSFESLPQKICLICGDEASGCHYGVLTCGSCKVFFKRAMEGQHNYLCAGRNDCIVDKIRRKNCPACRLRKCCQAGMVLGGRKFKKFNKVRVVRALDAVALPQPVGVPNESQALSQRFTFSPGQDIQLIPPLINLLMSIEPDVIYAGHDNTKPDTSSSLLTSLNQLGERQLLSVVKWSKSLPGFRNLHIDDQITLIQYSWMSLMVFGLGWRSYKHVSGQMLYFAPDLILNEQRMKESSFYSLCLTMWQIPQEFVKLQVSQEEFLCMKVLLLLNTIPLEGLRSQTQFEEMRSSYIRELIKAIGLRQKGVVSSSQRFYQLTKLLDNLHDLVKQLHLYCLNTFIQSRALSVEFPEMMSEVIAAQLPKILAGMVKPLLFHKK
# experimental-details: Displacement of [[3H]-Progesterone from progesterone receptor (unknown origin) expressed in 293 cells after 16 hrs by scintillation counting
observable: IC50 (µM)
Could you give me the number in µM? Just the number is fine.

Before answering, review these 4 worked examples.
# smiles-text, IC50 / µM
records = [
    ("Cc1[nH]nc(-c2ccc3c(c2)NC(=O)CO3)c1-c1ccc(F)cc1", 1.6),
    ("CCCCn1nc(C)c(-c2ccc3c(c2)NC(=O)CO3)c1-c1ccc(F)cc1", 4),
    ("Cc1nn(CCC(C)(F)F)c(-c2ccc(F)cc2)c1-c1ccc2c(c1)NC(=O)CO2", 4),
    ("Cc1nn(CCC#N)c(-c2ccc(F)cc2)c1-c1ccc2c(c1)NC(=O)CO2", 5.7),
]

Sure, the documented IC50 for Cc1nn(C)c(-c2ccc(F)cc2F)c1-c1ccc2c(c1)NC(=O)CO2 is 9.3

Noted for CCCn1nc(C)c(-c2ccc3c(c2)NC(=O)CO3)c1-c1ccc(F)cc1 : its IC50 reads 5.7

Entry under test: Cc1nn(Cc2ccccc2)c(-c2ccc(F)cc2)c1-c1ccc2c(c1)NC(=O)CO2 . Its IC50 was 2

IC50 recorded for this compound, Cc1nn(CC(C)C)c(-c2ccc(F)cc2)c1-c1ccc2c(c1)NC(=O)CO2 , is 4.3

* * *

# target-system: Androgen receptor (Homo sapiens)
# Sequence (P10275 whole entry): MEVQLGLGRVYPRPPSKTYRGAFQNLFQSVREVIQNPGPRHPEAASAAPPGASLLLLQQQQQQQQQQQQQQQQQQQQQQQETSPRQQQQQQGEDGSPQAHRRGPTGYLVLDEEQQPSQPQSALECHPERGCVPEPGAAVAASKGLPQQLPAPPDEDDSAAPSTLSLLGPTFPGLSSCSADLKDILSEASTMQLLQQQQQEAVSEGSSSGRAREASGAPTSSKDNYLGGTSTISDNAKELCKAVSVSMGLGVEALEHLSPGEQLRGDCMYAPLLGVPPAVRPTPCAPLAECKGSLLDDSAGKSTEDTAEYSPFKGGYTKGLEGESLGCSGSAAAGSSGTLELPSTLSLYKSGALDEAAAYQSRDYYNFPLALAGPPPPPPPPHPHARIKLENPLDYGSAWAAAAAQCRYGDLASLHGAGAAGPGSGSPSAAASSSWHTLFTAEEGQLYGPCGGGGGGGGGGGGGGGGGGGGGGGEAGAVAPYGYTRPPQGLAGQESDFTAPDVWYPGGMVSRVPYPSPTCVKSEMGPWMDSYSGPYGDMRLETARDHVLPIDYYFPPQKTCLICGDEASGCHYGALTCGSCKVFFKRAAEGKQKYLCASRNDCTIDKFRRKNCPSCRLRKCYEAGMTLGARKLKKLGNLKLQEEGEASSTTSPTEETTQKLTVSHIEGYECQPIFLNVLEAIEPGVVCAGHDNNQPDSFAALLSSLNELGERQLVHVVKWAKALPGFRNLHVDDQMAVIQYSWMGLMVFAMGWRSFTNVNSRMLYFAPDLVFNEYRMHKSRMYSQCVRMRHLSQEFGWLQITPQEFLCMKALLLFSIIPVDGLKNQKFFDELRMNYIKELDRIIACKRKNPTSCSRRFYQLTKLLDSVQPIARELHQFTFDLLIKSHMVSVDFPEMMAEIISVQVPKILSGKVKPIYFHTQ
pIC50: −log10 of the molar value.
Let's look at some molecules and their measured pIC50.

Sample answers from the record:
# molecule, target-system, pIC50
measured = [
    ("Cc1onc(-c2ccc3c(c2)NC(=O)CO3)c1-c1ccc(F)cc1", "Androgen receptor (Homo sapiens)", "< 5.00"),
    ("Cc1nn(Cc2ccccc2)c(-c2ccc(F)cc2)c1-c1ccc2c(c1)NC(=O)CO2", "Androgen receptor (Homo sapiens)", 5.25),
    ("Cc1nn(C)c(-c2ccc(F)cc2)c1-c1ccc2c(c1)NC(=O)CO2", "Androgen receptor (Homo sapiens)", "< 5.00"),
    ("Cc1nn(Cc2ccncc2)c(-c2ccc(F)cc2)c1-c1ccc2c(c1)NC(=O)CO2", "Androgen receptor (Homo sapiens)", "< 5.00"),
    ("Cc1nn(CCC(F)(F)CO)c(-c2ccc(F)cc2)c1-c1ccc2c(c1)NC(=O)CO2", "Androgen receptor (Homo sapiens)", "< 5.00"),
    ("Cc1nn(CC(F)(F)CO)c(-c2ccc(F)cc2)c1-c1ccc2c(c1)NC(=O)CO2", "Androgen receptor (Homo sapiens)", "< 5.00"),
    ("Cc1cc(C2=C(c3ccc(F)cc3)C(=O)NC2C)cc2c1OCC(=O)N2 (centres undefined)", "Androgen receptor (Homo sapiens)", "< 5.00"),
    ("Cc1[nH]nc(-c2ccc3c(c2)NC(=O)CO3)c1-c1ccc(F)cc1", "Androgen receptor (Homo sapiens)", "< 5.00"),
]

So for Cc1nn(CC(C)C)c(-c2ccc(F)cc2)c1-c1ccc2c(c1)NC(=O)CO2 , the logged pIC50 turned out to be 5.43
